# appliedConditions: in acetone, 288.15 K

>  <givenSmiles>
O=[N+]([O-])c1ccc(O)c2ncccc12

>  <solubility (mole fraction)>
0.00538

$$$$

----------
# appliedConditions: in acetic acid, 278.15 K
measuredEndpoint: solubility (mole fraction)

>  <givenSmiles>
O=[N+]([O-])c1ccc(O)c2ncccc12

>  <readoutNumber>
0.00224

$$$$

----------
# appliedConditions: in acetonitrile, 295.65 K
measuredEndpoint: solubility (mole fraction)

>  <givenSmiles>
O=[N+]([O-])c1ccc(O)c2ncccc12

>  <measuredEndpoint>
solubility (mole fraction)

>  <readoutNumber>
0.00214

$$$$

----------
# appliedConditions: in acetic acid, 290.65 K
measuredEndpoint: solubility (mole fraction)

>  <givenSmiles>
O=[N+]([O-])c1ccc(O)c2ncccc12

>  <readoutNumber>
0.00328

$$$$

----------
# appliedConditions: in n-propanol, 305.65 K

>  <givenSmiles>
O=[N+]([O-])c1ccc(O)c2ncccc12

>  <solubility (mole fraction)>
0.00157

$$$$

----------
# appliedConditions: in acetic acid, 285.65 K

>  <givenSmiles>
O=[N+]([O-])c1ccc(O)c2ncccc12

>  <solubility (mole fraction)>
0.0028

$$$$

----------
# appliedConditions: in methanol, 280.65 K

>  <givenSmiles>
O=[N+]([O-])c1ccc(O)c2ncccc12

>  <solubility (mole fraction)>
0.000486

$$$$

----------
# appliedConditions: in n-propanol, 280.65 K

>  <givenSmiles>
O=[N+]([O-])c1ccc(O)c2ncccc12

>  <solubility (mole fraction)>
0.000608

$$$$

----------
# appliedConditions: in n-propanol, 293.15 K

>  <givenSmiles>
O=[N+]([O-])c1ccc(O)c2ncccc12

>  <solubility (mole fraction)>
0.00099

$$$$

----------
# appliedConditions: in n-butanol, 293.15 K
measuredEndpoint: solubility (mole fraction)

>  <givenSmiles>
O=[N+]([O-])c1ccc(O)c2ncccc12

>  <result>
0.00105

$$$$

----------
# appliedConditions: in n-propanol, 308.15 K
measuredEndpoint: solubility (mole fraction)

>  <givenSmiles>
O=[N+]([O-])c1ccc(O)c2ncccc12

>  <readoutNumber>
0.0017

$$$$

----------
# appliedConditions: in methanol, 305.65 K
measuredEndpoint: solubility (mole fraction)

>  <givenSmiles>
O=[N+]([O-])c1ccc(O)c2ncccc12

>  <measuredEndpoint>
solubility (mole fraction)

>  <readoutNumber>
0.00116

$$$$

----------
# appliedConditions: in toluene, 283.15 K
measuredEndpoint: solubility (mole fraction)

>  <givenSmiles>
O=[N+]([O-])c1ccc(O)c2ncccc12

>  <result>
0.00269

$$$$

----------
# appliedConditions: in acetic acid, 310.65 K

>  <givenSmiles>
O=[N+]([O-])c1ccc(O)c2ncccc12

>  <solubility (mole fraction)>
0.00601

$$$$

----------
# appliedConditions: in acetone, 278.15 K

>  <givenSmiles>
O=[N+]([O-])c1ccc(O)c2ncccc12

>  <solubility (mole fraction)>
0.00398

$$$$

----------
# appliedConditions: in methanol, 308.15 K

>  <givenSmiles>
O=[N+]([O-])c1ccc(O)c2ncccc12

>  <solubility (mole fraction)>
0.00127

$$$$

----------
# appliedConditions: in toluene, 280.65 K

>  <givenSmiles>
O=[N+]([O-])c1ccc(O)c2ncccc12

>  <solubility (mole fraction)>
0.00247

$$$$

----------
# appliedConditions: in toluene, 300.65 K
measuredEndpoint: solubility (mole fraction)

>  <givenSmiles>
O=[N+]([O-])c1ccc(O)c2ncccc12

>  <measuredEndpoint>
solubility (mole fraction)

>  <readoutNumber>
0.00481

$$$$

----------
# appliedConditions: in acetonitrile, 278.15 K

>  <givenSmiles>
O=[N+]([O-])c1ccc(O)c2ncccc12

>  <solubility (mole fraction)>
0.00113

$$$$

----------
# appliedConditions: in acetonitrile, 298.15 K

>  <givenSmiles>
O=[N+]([O-])c1ccc(O)c2ncccc12

>  <solubility (mole fraction)>
0.00233

$$$$

----------
# appliedConditions: in isopropanol, 283.15 K

>  <givenSmiles>
O=[N+]([O-])c1ccc(O)c2ncccc12

>  <solubility (mole fraction)>
0.000605

$$$$

----------
# appliedConditions: in acetone, 303.15 K
measuredEndpoint: solubility (mole fraction)

>  <givenSmiles>
O=[N+]([O-])c1ccc(O)c2ncccc12

>  <measuredEndpoint>
solubility (mole fraction)

>  <readoutNumber>
0.00831

$$$$

----------
# appliedConditions: in toluene, 288.15 K
measuredEndpoint: solubility (mole fraction)

>  <givenSmiles>
O=[N+]([O-])c1ccc(O)c2ncccc12

>  <result>
0.00317

$$$$

----------
# appliedConditions: in acetonitrile, 305.65 K
measuredEndpoint: solubility (mole fraction)

>  <givenSmiles>
O=[N+]([O-])c1ccc(O)c2ncccc12

>  <readoutNumber>
0.00304

$$$$

----------
# appliedConditions: in acetic acid, 293.15 K

>  <givenSmiles>
O=[N+]([O-])c1ccc(O)c2ncccc12

>  <solubility (mole fraction)>
0.00355

$$$$

----------
# appliedConditions: in ethanol, 310.65 K
measuredEndpoint: solubility (mole fraction)

>  <givenSmiles>
O=[N+]([O-])c1ccc(O)c2ncccc12

>  <measuredEndpoint>
solubility (mole fraction)

>  <readoutNumber>
0.00182

$$$$

----------
# appliedConditions: in ethanol, 303.15 K
measuredEndpoint: solubility (mole fraction)

>  <givenSmiles>
O=[N+]([O-])c1ccc(O)c2ncccc12

>  <measuredEndpoint>
solubility (mole fraction)

>  <readoutNumber>
0.00139

$$$$

----------
# appliedConditions: in ethyl acetate, 310.65 K

>  <givenSmiles>
O=[N+]([O-])c1ccc(O)c2ncccc12

>  <solubility (mole fraction)>
0.01

$$$$

----------
# appliedConditions: in acetonitrile, 300.65 K

>  <givenSmiles>
O=[N+]([O-])c1ccc(O)c2ncccc12

>  <solubility (mole fraction)>
0.00256

$$$$

----------
# appliedConditions: in methanol, 300.65 K
measuredEndpoint: solubility (mole fraction)

>  <givenSmiles>
O=[N+]([O-])c1ccc(O)c2ncccc12

>  <readoutNumber>
0.000981

$$$$

----------
# appliedConditions: in n-propanol, 310.65 K
measuredEndpoint: solubility (mole fraction)

>  <givenSmiles>
O=[N+]([O-])c1ccc(O)c2ncccc12

>  <measuredEndpoint>
solubility (mole fraction)

>  <result>
0.00186

$$$$

----------
# appliedConditions: in n-butanol, 300.65 K

>  <givenSmiles>
O=[N+]([O-])c1ccc(O)c2ncccc12

>  <solubility (mole fraction)>
0.00139

$$$$

----------
# appliedConditions: in methanol, 293.15 K

>  <givenSmiles>
O=[N+]([O-])c1ccc(O)c2ncccc12

>  <solubility (mole fraction)>
0.000763

$$$$

----------
# appliedConditions: in n-butanol, 305.65 K
measuredEndpoint: solubility (mole fraction)

>  <givenSmiles>
O=[N+]([O-])c1ccc(O)c2ncccc12

>  <result>
0.00166

$$$$

----------
# appliedConditions: in acetonitrile, 288.15 K
measuredEndpoint: solubility (mole fraction)

>  <givenSmiles>
O=[N+]([O-])c1ccc(O)c2ncccc12

>  <result>
0.00165

$$$$

----------
# appliedConditions: in acetic acid, 280.65 K

>  <givenSmiles>
O=[N+]([O-])c1ccc(O)c2ncccc12

>  <solubility (mole fraction)>
0.00239

$$$$

----------
# appliedConditions: in acetonitrile, 280.65 K

>  <givenSmiles>
O=[N+]([O-])c1ccc(O)c2ncccc12

>  <solubility (mole fraction)>
0.00124

$$$$

----------
# appliedConditions: in ethanol, 293.15 K

>  <givenSmiles>
O=[N+]([O-])c1ccc(O)c2ncccc12

>  <solubility (mole fraction)>
0.000988

$$$$

----------
# appliedConditions: in ethanol, 280.65 K
measuredEndpoint: solubility (mole fraction)

>  <givenSmiles>
O=[N+]([O-])c1ccc(O)c2ncccc12

>  <readoutNumber>
0.000625

$$$$

----------
# appliedConditions: in n-propanol, 278.15 K

>  <givenSmiles>
O=[N+]([O-])c1ccc(O)c2ncccc12

>  <solubility (mole fraction)>
0.000562

$$$$

----------
# appliedConditions: in toluene, 305.65 K

>  <givenSmiles>
O=[N+]([O-])c1ccc(O)c2ncccc12

>  <solubility (mole fraction)>
0.00562

$$$$

----------
# appliedConditions: in isopropanol, 305.65 K

>  <givenSmiles>
O=[N+]([O-])c1ccc(O)c2ncccc12

>  <solubility (mole fraction)>
0.00141

$$$$

----------
# appliedConditions: in acetic acid, 288.15 K
measuredEndpoint: solubility (mole fraction)

>  <givenSmiles>
O=[N+]([O-])c1ccc(O)c2ncccc12

>  <measuredEndpoint>
solubility (mole fraction)

>  <result>
0.00303

$$$$

----------
# appliedConditions: in acetone, 313.15 K

>  <givenSmiles>
O=[N+]([O-])c1ccc(O)c2ncccc12

>  <solubility (mole fraction)>
0.0111

$$$$

----------
# appliedConditions: in n-butanol, 278.15 K

>  <givenSmiles>
O=[N+]([O-])c1ccc(O)c2ncccc12

>  <solubility (mole fraction)>
0.000606

$$$$
